- Tested on: 786-0 renal
- measurementDescription: NCI-60 one-dose screen, 48 h (100 = growth as untreated, 0 = no growth, -100 = all killed)
- protocolConditions: 10 µM unless noted
About 83,000 compounds went through this panel and 20% of them were active in at least one assay; those are over-represented in the sample as a whole.
Assign growth to each entry below.
# unit: % | format: bare number

Problem: I am curious: what growth value has been reported for COC(=O)[C@]1(CCSC)N[C@H](c2cn(-c3ccccc3)nc2C)[C@@H]2C(=O)N(c3ccccc3)C(=O)[C@@H]21 ?
Result: 104

Problem: Param item = ClC1C2CC(c3ccccc32)C1Cl (stereo unspecified) ; retrieve measured growth.
Result: 103

Problem: Can you look up the measured growth of O=C(c1nn(-c2ccc(Cl)cc2)cc1O)n1nc(C(F)(F)F)cc1-c1ccccc1 for me?
Result: 42.9

Problem: // lookup growth for CCN(CC)CCCCNc1c2ccccc2[n+](C)c2c1[nH]c1ccccc12
Result: -7.1

Problem: Could you share which growth value was measured for Cc1cc2c(C#N)n3c(c2cc1C)C(=O)C(c1ccccc1)Oc1ccccc1-3 (stereo unspecified) ?
Result: 41.7

Problem: What growth value was documented for this molecule, CCOC(=O)c1ccccc1OC(=O)NNc1ccccc1 ?
Result: 44.6

Problem: Fill blank: measured growth of the molecule COC(=O)CCC1=C(CC(=O)OC)C(C)=N/C1=C\c1[nH]c(-c2ccc[nH]2)cc1OC is ____.
Result: 50.2

Problem: Which growth value belongs to N#CCNc1ccccc1N ?
Result: 99

Problem: Need growth, item O=Cc1c[nH]c2ccc(NC(=O)OCc3ccccc3)cc12
Result: 95.8

Problem: For the molecule shown here, Cc1c(C(N)=O)sc2ncn(CC(=O)Nc3ccc(Cl)cc3)c(=O)c12 , give the reported growth.
Result: 104

Problem: Give the measured growth of N#Cc1cnc2cc(OC[C@H](O)CO)c(NC(=O)CC3CSSC3)cc2c1Nc1ccc(OCc2cccc(F)c2)c(Cl)c1 .
Result: -63.2

Problem: # get_value(readout='growth', item= COc1ncc(-c2ccc3nccc(C#CCN4CCN(S(C)(=O)=O)CC4)c3c2)cc1NS(=O)(=O)c1ccc(F)cc1F )
Result: -8.36

Problem: Name the recorded growth for S=c1[nH]nc2sc3ccccc3n12 .
Result: 111

Problem: Item under review: O=C1c2nsnc2C(=O)c2c(F)c(F)c(F)c(F)c21 . Reported growth?
Result: -97.1

Problem: growth for C=C(C)[C@@H]1C[C@H](O)Cc2cc(Cl)cc(Cl)c2N1 ?
Result: 100

Problem: # input molecule: CC(=O)n1c2ccccc2c2ccccc21 ; wanted: its growth
Result: 90.8

Problem: Please report the recorded growth for Cn1cc(-c2csc(-c3c[nH]c4ncccc34)n2)c2cc(Br)cnc21 .
Result: 20

Problem: For CSc1nnc(C2=CC(=O)c3ccccc3C2=O)n1-c1ccccc1 , what is its reported growth?
Result: 95.2

Problem: Could you share which growth value was measured for CCC(CCC(C)C1CCC2C3CC=C4CC(O)CCC4(C)C3CCC12C)C(C)C (stereo unspecified) (tested in a mixture with another compound) ?
Result: 96

Problem: Any idea what growth was measured for Fc1ccc(-c2nc(Nc3ccc(-c4nc5ccccc5[nH]4)cc3)nc(N3CCOCC3)n2)cc1 ?
Result: -94.5

Problem: Which growth reading was recorded for the molecule c1cnc2n[nH]c(Nc3ncnc4c3sc3ncccc34)c2c1 ?
Result: 106

Problem: Entry under review: CSc1nc2c(c(=O)[nH]1)C(c1ccc(Cl)cc1)C1=C(N2)/C(=C/c2ccc(Cl)cc2)CNC1 (stereo unspecified) . Reported growth?
Result: 88.4

Problem: Reported growth for O=C1NC(=O)/C(=C\c2ccccc2)C2=C1CCCC2 : what is it?
Result: 61.7

Problem: Sample O=C1Cc2cc(CCn3cncn3)c(Cl)cc2N1 — what was its growth?
Result: 94.7

Problem: If you can, please state the reported growth value of CC[C@]1(O)CC2CN(CCc3c([nH]c4ccccc34)[C@@](C(=O)OC)(c3cc4c(cc3OC)N(C)[C@H]3[C@@](O)(C(=O)OC)[C@H](OC(C)=O)[C@]5(CC)C=CCN6CC[C@]43[C@@H]65)C2)C1 (stereo partly specified) .
Result: 13.8

Problem: Request the reported growth associated with O=C(Nc1nc(-c2ccccc2)cs1)c1cc(O)c(O)c(O)c1
Result: 41.6

Problem: So what's the measured growth for this one? COc1ccc(C(=O)Nc2nc(-c3ccc(Cl)cc3)cs2)cc1
Result: 108

Problem: What growth value was documented for this molecule, Oc1ccccc1C=Nc1ccccc1N=Cc1ccccc1O.[Cu+2] ?
Result: 90.9

Problem: Query (molecule): CCN(CC)CCCNCCCNc1cc(OC)cc2cccnc12 ; field requested: growth
Result: 94.4

Problem: Query (molecule): NNC(=O)NO ; field requested: growth
Result: 98.5

Problem: I am curious: what growth value has been reported for O=[P@@]1(c2ccccc2)O[C@H](COCc2ccccc2)[C@@H](OCc2ccccc2)[C@H](OCc2ccccc2)[C@H]1NCc1ccccc1 ?
Result: 13.9

Problem: Give its growth value. Item: C[n+]1ccc(Nc2ccc(NC(=O)c3ccc(Nc4cc[n+](C)c5ccc(N)cc45)cc3)cc2)cc1
Result: 97

Problem: Dear colleague, I am looking for the recorded growth of the following molecule: Cc1nc2cc(NC(=O)CN3CCN(CCN4C(=O)c5cccc6cccc(c56)C4=O)CC3)ccc2s1
Result: 51.4

Problem: Query (molecule): Clc1ncn[nH]1 ; field requested: growth
Result: 103

Problem: Requested field: growth. Item: CCOc1ccccc1C(=O)OCC(=O)Nc1cccc(S(=O)(=O)N(C)C)c1
Result: 109

Problem: Tell me the measured growth of COc1ccc(C2=NN(C(C)=O)C(c3cc(OC)c(OC)c(OC)c3)C2)cc1 (stereo unspecified) , please.
Result: 108

Problem: What value of growth has been recorded for this entry: COc1cccc(/C=C2\COc3ccc(O)c(O)c3C2=O)c1OC
Result: -6.52

Problem: What measured growth goes with CC1=NN(c2ccccc2Cl)C(=O)/C1=C\c1cn(S(=O)(=O)c2ccc(C)cc2)c2ccccc12 ?
Result: 94.9

Problem: Requested read-out: growth. Entry: Cc1ccc2c(c1)C(=O)/C(=C/c1ncc([N+](=O)[O-])n1C)O2
Result: 2.46

Problem: Form field: reported growth of O=C(CCc1nnc(SCc2ccccc2)s1)c1nc2ccccc2[nH]1
Result: 91.2

Problem: Data request, read-out growth, for O=C1C(=O)c2ccc(Br)cc2-c2cc(Br)ccc21
Result: 50.9

* * *

- Test system: NCI-H226 lung
- measurementDescription: NCI-60 one-dose screen, 48 h (100 = growth as untreated, 0 = no growth, -100 = all killed)
- protocolConditions: 10 µM unless noted
This is part of a sample that, as a whole, favours compounds with a hit. Of some 83,000 tested, about 20% had one in any assay.
Response field label: string, one of met (growth strictly below 90%) or not met.

Problem: Take the compound CSc1nc2c(c(=O)n1C)C(c1ccccc1)C1=C(N2)/C(=C/c2ccccc2)CCC1 (stereo not given) and say whether its growth is less than 90%.
Result: met

Problem: Consider the compound N=C(N)/N=C(\CCc1nc2ccccc2[nH]1)c1nc2ccccc2[nH]1 . Is its growth strictly less than 90%?
Result: not met

Problem: Is it true that growth reported for [O-]/[N+](=C\C=C\c1ccccc1)c1ccccc1 is less than 90%?
Result: not met

Problem: In plain terms, does Cc1nn(-c2ccc(Cl)cc2)c2nc3c(nc12)C(=O)C(=O)c1ccccc1-3 come in under 90% for growth?
Result: met

Problem: API: query returns whether the compound falls strictly under 90% in growth. Query: COc1c(O)cc2oc3cc(O)c(CC=C(C)C)c(O)c3c(=O)c2c1C/C=C(\C)CCC=C(C)C
Result: not met

Problem: Does the reported growth of C[C@]12CC[C@@H]3c4ccc(O)c([N+](=O)[O-])c4CC[C@H]3[C@@H]1CC[C@@H]2NS(=O)(=O)c1ccc(C(F)(F)F)cc1 stay below 90%?
Result: met

* * *

- Tested on: K-562 leukemia
- measurementDescription: NCI-60 one-dose screen, 48 h (100 = growth as untreated, 0 = no growth, -100 = all killed)
- protocolConditions: 10 µM unless noted
This is part of a sample that, as a whole, favours compounds with a hit. Of some 83,000 tested, about 20% had one in any assay. The source made the active and inactive calls. Rule for the calls: active = growth percent below 10; inactive = the rest.
assayReadout: growth

Problem: Form entry - test system: K-562 leukemia; read-out: growth; compound: O=C1NCC(Nc2ccc(Br)cc2Cl)C(=O)N1 (stereo unspecified)
Result: 95.5% (inactive)

Problem: # get_value(readout= growth, system= K-562 leukemia) for CC(C)[O-].CC(C)[O-].CN(CCN(C)Cc1cc(F)cc(F)c1[O-])Cc1cc(F)cc(F)c1[O-].[Ti+4]
Result: 8.81% (active)

Problem: growth of COc1ccc(-c2noc(N)c2-c2cc(OC)c3c(c2)OCO3)cc1 on K-562 leukemia?
Result: 2.56% (active)

Problem: Requested read-out growth, target or system K-562 leukemia, entry CC(C)c1ccc(C(=O)Nc2sc3c(CN(C)C)c(O)ccc3c2C(N)=O)cc1
Result: -41.3% (active)

Problem: Write down the reported growth of O=C(N1CCC(CN=c2cc3n(-c4ccc(Cl)cc4)c4ccccc4nc-3cc2Nc2ccc(Cl)cc2)CC1)N1CC1 , test system: K-562 leukemia.
Result: -66.5% (active)

Problem: Can you look up growth on K-562 leukemia for CC(C)(C)c1ccc(S(=O)(=O)O)s1 ?
Result: 77% (inactive)

Problem: Lab note: need growth with K-562 leukemia for entry CCS(=O)(=O)OCCCl , please look it up.
Result: 122% (inactive)

Problem: Form: Entry = Clc1nc(Cl)c2ncn(-c3ccccc3)c2n1 | System = K-562 leukemia | growth = ____
Result: 36.2% (inactive)

Problem: Which measured growth belongs to O=C(NCCCO)c1cc(Cl)ccc1O , tested on K-562 leukemia?
Result: 11.1% (inactive)

Problem: Write down the reported growth of Cc1cc(C)n(C(=O)c2nn(-c3ccc(Cl)cc3)cc2O)n1 , test system: K-562 leukemia.
Result: 6.26% (active)

Problem: Give K-562 leukemia growth for O=C(/C(=C/c1ccc([N+](=O)[O-])cc1)c1ccccc1)c1ccccc1
Result: 3.83% (active)
